Target: ATP-citrate lyase (ACLY) (Homo sapiens)
Construct: purchased BPS Bioscience
Sequence (P53396 1-1101): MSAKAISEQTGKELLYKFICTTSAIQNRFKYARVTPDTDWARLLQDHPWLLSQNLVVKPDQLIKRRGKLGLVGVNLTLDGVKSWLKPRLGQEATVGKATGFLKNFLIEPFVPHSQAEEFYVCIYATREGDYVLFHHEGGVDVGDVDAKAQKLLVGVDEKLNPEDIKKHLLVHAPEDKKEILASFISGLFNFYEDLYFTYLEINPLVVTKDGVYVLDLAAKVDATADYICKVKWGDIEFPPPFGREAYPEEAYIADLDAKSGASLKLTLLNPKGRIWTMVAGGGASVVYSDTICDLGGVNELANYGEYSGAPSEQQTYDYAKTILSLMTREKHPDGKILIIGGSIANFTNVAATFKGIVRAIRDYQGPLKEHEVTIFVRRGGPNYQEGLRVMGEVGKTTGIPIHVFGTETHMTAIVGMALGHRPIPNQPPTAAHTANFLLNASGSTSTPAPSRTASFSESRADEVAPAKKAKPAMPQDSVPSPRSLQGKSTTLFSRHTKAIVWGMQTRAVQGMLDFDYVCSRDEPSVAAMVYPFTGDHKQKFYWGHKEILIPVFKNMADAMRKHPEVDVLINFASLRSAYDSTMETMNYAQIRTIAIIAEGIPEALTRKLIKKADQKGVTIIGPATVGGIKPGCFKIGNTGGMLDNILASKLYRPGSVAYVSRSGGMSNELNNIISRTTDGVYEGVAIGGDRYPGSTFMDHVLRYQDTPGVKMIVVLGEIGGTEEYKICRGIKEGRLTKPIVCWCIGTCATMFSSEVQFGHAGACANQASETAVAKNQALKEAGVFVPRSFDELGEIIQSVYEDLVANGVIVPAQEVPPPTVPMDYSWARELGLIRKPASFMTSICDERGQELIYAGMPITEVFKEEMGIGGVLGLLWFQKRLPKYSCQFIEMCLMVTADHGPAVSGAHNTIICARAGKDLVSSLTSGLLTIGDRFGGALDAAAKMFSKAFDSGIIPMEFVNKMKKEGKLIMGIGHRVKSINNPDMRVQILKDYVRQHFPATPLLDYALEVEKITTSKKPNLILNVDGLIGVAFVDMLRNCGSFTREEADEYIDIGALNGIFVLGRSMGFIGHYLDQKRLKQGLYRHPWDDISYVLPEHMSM
Experiment: ACLY Assay Kit (ADP-Glo) enzymatic activity
Format: biochemical
Settings: 1-2000 nM tested; read-out: IC50 of ACLY activity
measurement.label: IC50 (nM)
Answer in nM, number only, no unit symbol.

Lookup: Which IC50 value belongs to "C/C=C(/C=O)[C@@H](CC=O)CC(=O)SCCc1ccccc1" ?
Found: 81.5

----------
Recorded inhibition at 50 µM values for a group of compounds are listed next.
Tested on: MDA-MB-231 triple negative breast cancer cells
Experiment: XTT cell growth assay, MDA-MB-231
Assay type: cell-based, human
Details: Homo sapiens, MDA-MB-231, 24 h, NS = not statistically significant, read-out: Effectiveness to suppress MDA-MB-231 cell growth (cell growth inhibition)
Excerpt: The XTT assay is used to measure cellular metabolic activity as an indicator of cell viability, proliferation and cytotoxicity. […] The XTT assay is based on the reduction of a yellow tetrazolium salt (sodium 3′-[1-(phenylaminocarbonyl)-3,4-tetrazolium]-bis (4-methoxy6-nitro) benzene sulfonic acid hydrate or XTT) to an orange formazan dye by metabolically active cells (FIG. 8). […] This increase directly correlates to the amount of orange formazan formed, as monitored by the absorbance. […]
Answer in %, number only, no unit symbol.

compound	system.under.test	measurement.unit	inhibition at 50 µM
C/C=C1/[C@H](OC2OC(CO)C(O)C(O)C2O)OC=C(C(=O)O)[C@H]1CC(=O)OCCC1CCCCC1 (stereo in doubt)	MDA-MB-231 triple negative breast cancer cells	%	33.6
C/C=C(/C=O)[C@@H](CC=O)CC(=O)OCC12CC3CC(CC(C3)C1)C2	MDA-MB-231 triple negative breast cancer cells	%	42.7
C/C=C(/C=O)[C@@H](CC=O)CC(=O)OCCC1CCCCC1	MDA-MB-231 triple negative breast cancer cells	%	48

Lookup: Which inhibition at 50 µM value belongs to "C/C=C(/C=O)[C@@H](CC=O)CC(=O)OCCCSC" ?
Found: 47.8

Lookup: Which inhibition at 50 µM value belongs to C/C=C1/[C@H](OC2OC(CO)C(O)C(O)C2O)OC=C(C(=O)O)[C@H]1CC(=O)OCCc1cccc(O)c1 (stereo in doubt) ?
Found: 38.2

----------
Assay: in vivo
Settings: female, NOD SCID (NOD.CB17-Prkdc^scid/J), mouse, ip
measurement.label: MTD at 2 weeks

Lookup: Which MTD at 2 weeks value belongs to C/C=C(/C=O)[C@@H](CC=O)CC(=O)SCCc1ccccc1 [GS27] ?
Found: > 200 mg/kg

Hello, the source for this data is patent US12414960B2, in case you need it.
